Molecular target: human TRPV4 (Homo sapiens)
Construct: expressed in transfected cells; host or cells: HeLa cells, transient transfection with pcDNA3.1 Directional TOPO vector
Sequence (Q9HBA0 whole entry): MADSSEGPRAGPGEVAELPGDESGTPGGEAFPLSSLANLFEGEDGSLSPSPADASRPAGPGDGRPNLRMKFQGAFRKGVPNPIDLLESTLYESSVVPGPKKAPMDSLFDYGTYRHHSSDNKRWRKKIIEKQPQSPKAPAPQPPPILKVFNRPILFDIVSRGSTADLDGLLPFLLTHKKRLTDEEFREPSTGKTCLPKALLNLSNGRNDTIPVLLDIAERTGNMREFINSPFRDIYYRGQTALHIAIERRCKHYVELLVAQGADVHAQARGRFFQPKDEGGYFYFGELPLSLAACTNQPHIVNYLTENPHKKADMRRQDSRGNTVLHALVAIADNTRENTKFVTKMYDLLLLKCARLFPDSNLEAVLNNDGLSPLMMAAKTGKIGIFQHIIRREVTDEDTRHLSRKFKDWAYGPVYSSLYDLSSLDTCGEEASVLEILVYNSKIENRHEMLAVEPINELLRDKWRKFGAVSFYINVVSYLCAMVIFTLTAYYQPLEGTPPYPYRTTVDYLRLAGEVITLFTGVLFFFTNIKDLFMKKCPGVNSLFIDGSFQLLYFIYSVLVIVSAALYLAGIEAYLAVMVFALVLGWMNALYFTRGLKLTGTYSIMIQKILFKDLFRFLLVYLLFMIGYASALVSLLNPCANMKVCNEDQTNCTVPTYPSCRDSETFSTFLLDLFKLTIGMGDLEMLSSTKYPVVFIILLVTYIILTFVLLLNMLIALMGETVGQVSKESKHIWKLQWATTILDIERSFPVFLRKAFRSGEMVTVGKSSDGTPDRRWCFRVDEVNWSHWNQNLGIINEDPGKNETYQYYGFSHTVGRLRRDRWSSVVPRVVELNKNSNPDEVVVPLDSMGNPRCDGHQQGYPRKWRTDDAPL
Assay: Measurement of intracellular calcium ion influx activity in human TRPV4 expressing cells (HeLa, Fluo4) stimulated with TRPV4 agonist GSK1016790a
Format: cell-based
Settings: sample 100 μM + GSK1016790a 3 nM; GSK + solvent = 100%; human TRPV4 expressing HeLa cells; n = 3, Mean ± S.E.
Description: Polymerase chain reaction (PCR) was performed under the following conditions using a primer set comprising the oligonucleotides represented by the following base sequences which were synthesized with reference to published human TRPV4 gene sequences using a cDNA obtained by reverse-transcribing a totalRNA extracted from the Hutu-80 cell, as a template. […] F0: The fluorescence intensity of the same well as Fmax, immediately after the start of the measurement […]
Below, each of the molecules is paired with its reported Intracellular Ca^2+ influx rate (%) value.

Below, each entry is followed by its recorded Intracellular Ca^2+ influx rate (%) result.
COc1ccc(/C=C/C(=O)OC(Cc2ccc(O)c(O)c2)C(=O)O)cc1OC (stereo not shown) [3′,4′-DiMe-RA] | 81.74 ± 1.18 (P < 0.01) %
COc1ccc(CC(OC(=O)/C=C/c2ccc(O)c(O)c2)C(=O)O)cc1OC (stereo not shown) [3,4-DiMe-RA] | 78.99 ± 3.27 (P < 0.01) %
COc1ccc(CC(OC(=O)/C=C/c2ccc(O)c(OC)c2)C(=O)O)cc1O (stereo not shown) [4,3′-DiMe-RA] | 81.02 ± 1.18 (P < 0.01) %

Record COc1ccc(/C=C/C(=O)OC(Cc2ccc(OC)c(O)c2)C(=O)O)cc1O (stereo not shown) [4,4′-DiMe-RA] . Reported Intracellular Ca^2+ influx rate (%): 75.87 ± 3.39 (P < 0.001) %
